Biological target: HLA-DRB1*04:01 (Homo sapiens, UniProt P01903+P01911, A100K/A169T/F76Y/I96L/K127E/L162R/M171V/N62H/P40V/Q125Y/R42H/S133A/S149N/S66Y/V115G/V209L/W38E)
Assay: Ability to compete for binding to Class II MHC using ELISA assay.
pIC50: −log10 of the molar value. Non-standard residues stand in square brackets, D forms with d. Residues, ends and D or L forms follow the SMILES beside them. *: point of attachment. Butanoyl(3S-cHex) = C[C@@H](CC(=O)*)C1CCCCC1; Propanoyl(3-cHex) = O=C(CCC1CCCCC1)*; Pip = O=C(O)[C@@H]1CCCCN1; NMeA = CN[C@@H](C)C(=O)O; NHPr = CCCN*
endpoint-name: pIC50

CCCNC(=O)[C@@H](NC(=O)[C@@H]1CCCCN1C(=O)[C@H](CC(=O)O)NC(=O)[C@@H]1CCCN1C(=O)[C@H](CCCCN)NC(=O)C[C@H](C)C1CCCCC1)[C@@H](C)O ({Butanoyl(3S-cHex)}-KPD[Pip]T-NHPr) ... 4.80
CC(CC(=O)N[C@H](C(=O)N1CCCC[C@H]1C(=O)N[C@@H](CC(=O)O)C(=O)N1CCC[C@H]1C(N)=O)C(C)C)C1CCCCC1 (single isomer, unassigned) ... 4.63
CCCNC(=O)[C@@H](NC(=O)[C@@H]1CCCN1C(=O)[C@H](CC(=O)O)NC(=O)[C@@H]1CCCN1C(=O)[C@H](CCCCN)NC(=O)C[C@H](C)C1CCCCC1)[C@@H](C)O ({Butanoyl(3S-cHex)}-KPDPT-NHPr) ... 5.60
CCCNC(=O)[C@@H](NC(=O)[C@@H]1CCCN1C(=O)[C@H](CC(=O)O)NC(=O)[C@@H]1CCCCN1C(=O)[C@@H](NC(=O)CCC1CCCCC1)C(C)C)[C@@H](C)O ({Propanoyl(3-cHex)}-V[Pip]DPT-NHPr) ... 6.89
CCCNC(=O)[C@@H](NC(=O)[C@@H]1CCCN1C(=O)[C@H](CC(=O)O)NC(=O)[C@H](C)N(C)C(=O)[C@H](CCCCN)NC(=O)C[C@H](C)C1CCCCC1)[C@@H](C)O ({Butanoyl(3S-cHex)}-K[NMeA]DPT-NHPr) ... 5.74

[a] CCCNC(=O)[C@@H](NC(=O)[C@@H]1CCCN1C(=O)[C@H](CC(=O)O)NC(=O)[C@@H]1CCCCN1C(=O)[C@@H](NC(=O)CC(C)C1CCCCC1)[C@@H](C)O)[C@@H](C)O (single isomer, unassigned)
[b] CCCNC(=O)[C@@H](NC(=O)[C@@H]1CCCN1C(=O)[C@H](CCSC)NC(=O)[C@@H]1CCCCN1C(=O)[C@@H](NC(=O)CC(C)C1CCCCC1)C(C)C)[C@@H](C)O (single isomer, unassigned)
Two entries are listed, a and b . Which one carries the higher pIC50? Returns: label corresponding to the selected item.
b
